- target_under_test: T1, P2-AA-12HGe-S
- T1 chain: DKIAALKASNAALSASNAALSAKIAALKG
- experiment: two-hybrid library CCmax;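 note: natural log of median RNA to DNA barcode read ratio; higher means stronger binding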
- test_context: mean of both orientations
Respond with T for interaction score values of 0.2 and above, F for values below.

Please review the following examples before continuing.
# binder, label_value
rows = [
    ("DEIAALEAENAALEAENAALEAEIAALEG [P1-AA]", "T"),
    ("DEIAALEAQNAALQAQNAALQAEIAALEG [P1-AA-12HGe-Q]", "T"),
    ("DEIAALEADNAALDADNAALDAEIAALEG [P1-AA-12HGe-D]", "F"),
    ("DEIAALEARNAALRARNAALRAEIAALEG [P1-AA-12HGe-R]", "T"),
    ("DEIAALEAHNAALHAHNAALHAEIAALEG [P1-AA-12HGe-H]", "F"),
]

Reported interaction score reaches at least 0.2 for DEIAALEAMNAALMAMNAALMAEIAALEG [P1-AA-12HGe-M] ?
T

Reported interaction score reaches at least 0.2 for DEIAALEAYNAALYAYNAALYAEIAALEG [P1-AA-12HGe-Y] ?
F

Just for reference, paper PMC10397247 is where these values come from.
